System: GB4
ASSAY NAME: qHTS profiling for inhibitors of Plasmodium falciparum proliferation (AID 504749); further: nearly all actives have a fitted effect of over 60% in size
ASSAY SETUP: P. falciparum in erythrocytes, SYBR Green DNA, 72 h; series mostly up to 28.7 µM
Inconclusive results are not listed. Active and inactive are the calls of the source. The call rests on the fitted dose curve; in most records, active means well fitted inhibition curve with a large enough effect; inconclusive means small, poorly fitted or top-dose-only effect; inactive means flat fitted curve, though single readings scatter.
Give your call using only these classes: true (1) for active, false (0) for inactive

These recorded examples may help you get a feel for the data.
# MOLECULE, CATEGORY LABEL
records = [
    ("C=C1CC2C(CC[C@]3(C)C(=O)CCC23)[C@]2(C)C=CC(=O)C=C12 (stereo partly specified)", "false (0)"),
    ("CC(C)=CC1C(C(=O)OCc2coc(Cc3ccccc3)c2)C1(C)C (stereo unspecified)", "false (0)"),
    ("CC1(C)[C@@H](C=C(Cl)Cl)[C@@H]1C(=O)OCc1c(F)c(F)cc(F)c1F", "false (0)"),
    ("CC1(C)S[C@@H]2[C@H](N)C(=O)N2C1C(=O)O (stereo partly specified)", "false (0)"),
    ("CCOC(=O)/C=C(C)/C=C/CC(C)CCCC(C)C (stereo unspecified)", "false (0)"),
    ("CC(=O)Oc1ccc2c3c1OC1[C@@H](OC(C)=O)C=C[C@H]4[C@H](C2)N(C)CC[C@]314 (stereo partly specified)", "false (0)"),
]

Input: Please share the test call associated with C#CCN1CC(=O)N(COC(=O)[C@@H]2[C@@H](C=C(C)C)C2(C)C)C1=O .
Output: false (0)

Input: Please share the test call associated with CCOC(=O)c1cncn1[C@@H](C)c1ccccc1 .
Output: false (0)

Input: Please share the test call associated with OCC(O)[C@H]1O[C@@H]2O[C@H](C(Cl)(Cl)Cl)O[C@@H]2[C@H]1O (stereo partly specified) .
Output: false (0)

Input: Please share the test call associated with C[C@@H]1CC[C@H]2[C@@H](C)C(=O)O[C@@H]3OC4(C)CC[C@@H]1C32OO4 (stereo partly specified) .
Output: true (1)

Input: Please share the test call associated with CCC/C=C/C=C/C(=O)OC1/C(=C/C(=O)OC)CC2CC(C(C)O)OC(=O)CC(O)CC3CC(OC(C)=O)C(C)(C)C(O)(CC4C/C(=C/C(=O)OC)CC(/C=C\C(C)(C)C1(O)O2)O4)O3 (stereo unspecified) .
Output: true (1)

Input: Please share the test call associated with CCC(=O)OC1(c2ccccc2)CCN(C)CC1C (stereo unspecified) .
Output: true (1)

---

System: CP268
ASSAY NAME: qHTS profiling for inhibitors of Plasmodium falciparum proliferation (AID 504749); further: nearly all actives have a fitted effect of over 60% in size
ASSAY SETUP: P. falciparum in erythrocytes, SYBR Green DNA, 72 h; series mostly up to 28.7 µM
Results filed as inconclusive are left out. Active and inactive are the calls of the source. The call rests on the fitted dose curve; in most records, active means well fitted inhibition curve with a large enough effect; inconclusive means small, poorly fitted or top-dose-only effect; inactive means flat fitted curve, though single readings scatter.
Give your call using only these classes: TRUE = active, FALSE = inactive

These recorded examples may help you get a feel for the data.
# COMPOUND, CATEGORY LABEL
rows = [
    ("OCC(O)[C@H]1O[C@@H]2O[C@H](C(Cl)(Cl)Cl)O[C@@H]2[C@H]1O (some centres undefined)", "FALSE"),
    ("C[C@]12CCC3C(CCC4=C(Cl)C(=O)CC[C@@]43C)C1CCC2O (some centres undefined)", "FALSE"),
    ("CC(C)CCC(=O)OC1CCC2C3CCC4=CC(=O)CC[C@]4(C)C3CC[C@]12C (some centres undefined)", "FALSE"),
    ("CCCCCc1cc(O)c2c(c1)OC(C)(C)C1CC=C(C)CC21 (centres undefined)", "TRUE"),
    ("O=[N+]([O-])OC1CO[C@H]2C(O[N+](=O)[O-])COC12 (some centres undefined)", "FALSE"),
    ("CCOC(=O)c1cncn1[C@@H](C)c1ccccc1", "FALSE"),
    ("CN(C)[C@H]1C(=O)C(C(N)=O)=C(O)[C@]2(O)C(=O)C3=C(O)c4c(O)cccc4[C@@](C)(O)[C@H]3C[C@@H]12", "FALSE"),
    ("COC(C(=O)C(O)C(C)O)C1Cc2cc3cc(OC4CC(OC5CC(O)C(OC)C(C)O5)C(OC(C)=O)C(C)O4)c(C)c(O)c3c(O)c2C(=O)C1OC1CC(OC2CC(OC3CC(C)(O)C(OC(C)=O)C(C)O3)C(O)C(C)O2)C(O)C(C)O1 (centres undefined)", "TRUE"),
]

Attention now shifts to the item below.
Input: Please share the test call associated with Nc1nc(O)c(-c2ccccc2)o1 .
Output: FALSE
